MEASUREMENT TARGET: hemoglobin (Homo sapiens, UniProt P69905)
Construct: from tissue; host or cells: whole blood (red blood cells)
Sequence (P69905 2-142 limits assumed): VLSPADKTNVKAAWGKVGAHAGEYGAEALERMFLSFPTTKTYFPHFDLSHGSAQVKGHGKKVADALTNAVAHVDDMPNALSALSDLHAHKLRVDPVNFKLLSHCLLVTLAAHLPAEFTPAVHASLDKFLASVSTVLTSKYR
Sequence (P68871 2-147 partner limits assumed): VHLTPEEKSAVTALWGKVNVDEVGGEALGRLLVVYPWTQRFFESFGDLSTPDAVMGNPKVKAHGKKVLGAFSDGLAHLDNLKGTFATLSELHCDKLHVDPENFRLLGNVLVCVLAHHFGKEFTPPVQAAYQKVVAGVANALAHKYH
RUN DESCRIPTION: Whole blood assay: oxygen equilibrium curves (Hemox Analyzer), change in p50
Format: cell-based
ASSAY CONDITIONS: whole blood 20% Hct (1 mM Hb), compound 1 mM, equimolar to hemoglobin, 1 h at 37° C.
Kind request: treat 20% as inclusive, so Delta-p50 (%) at 20% or higher is fulfilled, anything lower is not fulfilled.

O=Cc1nc(-c2ncccc2COc2cccc(O)c2C=O)ccc1O    not fulfilled
O=Cc1c(O)cccc1OC[C@@H]1CCCCN1C(=O)c1cccc(Cl)c1C=O    fulfilled
O=Cc1cc(-c2ccccc2COc2cccc(O)c2C=O)co1    not fulfilled
CCOc1cccc(C(=O)N2CCC[C@H]2COc2cccc(O)c2C=O)c1C=O    fulfilled
O=Cc1ccccc1N1C(=O)CC[C@H]1COc1cccc(O)c1C=O    fulfilled
O=Cc1ccccc1C(=O)N1CCCCC[C@H]1COc1cccc(O)c1C=O    fulfilled

Decide: Delta-p50 (%) of Cc1cccc(C(=O)N2CCCC[C@@H]2COc2cccc(O)c2C=O)c1C=O >= 20%?
fulfilled

Decide: Delta-p50 (%) of O=Cc1ccc(C(=O)N2CCCC[C@H]2COc2cccc(O)c2C=O)cc1 >= 20%?
fulfilled

Decide: Delta-p50 (%) of O=Cc1ccccc1C(=O)N1CCC[C@H]1COc1cccc(O)c1C=O >= 20%?
fulfilled

====

Measured Delta-p50 (%) by item
MEASUREMENT TARGET: hemoglobin (Homo sapiens, UniProt P69905)
Construct: from tissue; host or cells: whole blood (red blood cells)
RUN DESCRIPTION: Whole blood assay: oxygen equilibrium curves (Hemox Analyzer), change in p50
Type: cell-based
ASSAY CONDITIONS: whole blood 20% Hct (1 mM Hb), compound 1 mM, equimolar to hemoglobin, 1 h at 37° C.
// note: answer is a bare numeric in %

# count of solved cases: 5
O=Cc1cccc(C(=O)N2CCC[C@@H](COc3cccc(O)c3C=O)C2)c1    74
O=Cc1c(O)cccc1C(=O)N1CCCC[C@H]1COc1ccc2c(c1C=O)CCO2    34.2
CC(C)Oc1cccc(C(=O)N2CCCC[C@H]2COc2cccc(O)c2C=O)c1C=O    72.5
O=Cc1c(O)cccc1OC[C@@H]1CCCCN1C(=O)c1cccc(F)c1C=O    70
O=Cc1cccc(-c2ccncc2COc2cccc(O)c2C=O)n1    17.4

Record summary for O=Cc1ccc(C(=O)N2CCC[C@@H](COc3cccc(O)c3C=O)C2)cc1 : reported Delta-p50 (%) = 45

Record summary for O=Cc1cc(-c2ncccc2COc2cccc(O)c2C=O)ccn1 : reported Delta-p50 (%) = 36.1

Record summary for O=Cc1ccc(Cl)cc1C(=O)N1CCCC[C@H]1COc1cccc(O)c1C=O : reported Delta-p50 (%) = 39

Record summary for O=Cc1c(O)cccc1OC[C@@H]1CCCCN1C(=O)c1cccc(O)c1C=O : reported Delta-p50 (%) = 75.8

====

RUN DESCRIPTION: Pharmacokinetics in rats following 10 mg/kg oral administration
Format: in vivo
ASSAY CONDITIONS: Sprague-Dawley, whole blood; rat, blood, PO 10 mg/kg, 0.5% MC, mean of N=3; read-out: T½ (converted)
OBSERVATION TYPE: half-life (h)
// note: answer is a bare numeric in h

Record summary for O=Cc1ccccc1C(=O)N1CCCC[C@H]1COc1cccc(O)c1C=O : reported half-life = 187
